B1: CPEB3 Ribozyme (parent)
chain: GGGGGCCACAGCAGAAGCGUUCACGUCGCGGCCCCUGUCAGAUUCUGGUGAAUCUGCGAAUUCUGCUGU

# Variants of: B1
# protocol-details: self-cleavage, relative activity (ratio to wild type); higher = more cleavage; co-transcriptional
Answer each item with its documented self-cleavage.
Provide a numeric answer; units are not to be included.

Note to self: self-cleavage recorded for G11A G31U was 0.599

Note to self: self-cleavage recorded for C6A G31A was 0.775

Note to self: self-cleavage recorded for C12U C32G was 0.529

Note to self: self-cleavage recorded for A16U C66U was 0.785

Note to self: self-cleavage recorded for C32A U62C was 0.339

Note to self: self-cleavage recorded for A15C C33G was 0.259

Note to self: self-cleavage recorded for U46C A60C was 0.339

Note to self: self-cleavage recorded for A15C G28U was 0.191

Note to self: self-cleavage recorded for G3C C66G was 0.0391

Note to self: self-cleavage recorded for A40C G56U was 0.401

Note to self: self-cleavage recorded for G4A A8U was 0.86

Note to self: self-cleavage recorded for C22G G41U was 0.178

Note to self: self-cleavage recorded for A16U C57U was 0.196

Note to self: self-cleavage recorded for U44G G58C was 0.944

Note to self: self-cleavage recorded for A42G C63U was 0.889

Note to self: self-cleavage recorded for G3U G41U was 0.0372

Note to self: self-cleavage recorded for U20C C33U was 0.219

Note to self: self-cleavage recorded for G14U C54U was 0.734

Note to self: self-cleavage recorded for G5C C34A was 0.268
